assay: UV-vis absorption and fluorescence spectra of thio-caged and uncaged fluorophores; type: physicochemical; details: DMSO (50 μM)
endpoint-name: λem (nm)

Problem: # lookup: λem of `S=C1NC(=S)c2ccccc21`
Result: 294

Problem: # lookup: λem of `CN(C)c1ccc2c(c1)C(=S)NC2=S`
Result: 447

Problem: # lookup: λem of `CCN(CC)c1ccc2nc3c4ccccc4c(=S)cc-3oc2c1`
Result: 616

Problem: # lookup: λem of `CCN(CC)c1ccc2nc3c4ccccc4c(=O)cc-3oc2c1`
Result: 626

Problem: # lookup: λem of `O=c1ccc2ccccc2o1`
Result: 445

P: CN(C)c1ccc2c(c1)C(=O)NC2=O [DMAP, 4-dimethylaminophthalimide]
Q: O=C1NC(=O)c2ccccc21 [OPI, phthalimide]
Problem: Of P and Q , which one carries the higher reported λem? State the label of the item chosen.
Result: P
(P: 505 nm, Q: 347 nm)

###

assay: Fluorescence quantum yield determination; format: physicochemical; conditions: DMSO; reference rhodamine B in ethanol or quinine sulfate in 0.5 M H2SO4
endpoint-name: ø (fluorescence quantum yield)

These solved cases illustrate the format of a correct answer.
Problem: # lookup: ø (fluorescence quantum yield) of `O=c1c2ccccc2[nH]c2ccccc12`
Result: 0.64

Problem: # lookup: ø (fluorescence quantum yield) of `O=c1ccc2ccccc2o1`
Result: 0.71

A: CN(C)c1ccc2c(c1)C(=O)NC2=O [DMAP, 4-dimethylaminophthalimide]
B: CCN(CC)c1ccc2nc3c4ccccc4c(=O)cc-3oc2c1
Problem: Of A and B , which one carries the higher reported ø (fluorescence quantum yield)? State the label of the item chosen.
Result: B

###

List of ø (fluorescence quantum yield) values.
assay: Fluorescence quantum yield determination; assay type: physicochemical; details: DMSO; reference rhodamine B in ethanol or quinine sulfate in 0.5 M H2SO4

These solved cases illustrate the format of a correct answer.
Problem: # lookup: ø (fluorescence quantum yield) of S=C1NC(=S)c2ccccc21 [Dye 2SPI]
Result: <0.001

Problem: # lookup: ø (fluorescence quantum yield) of O=C1NC(=O)c2ccccc21 [OPI, phthalimide]
Result: 0.001

Problem: # lookup: ø (fluorescence quantum yield) of S=c1c2ccccc2[nH]c2ccccc12 [SACD]
Result: <0.001

Problem: # lookup: ø (fluorescence quantum yield) of CN(C)c1ccc2c(c1)C(=S)NC2=S [SDMAP]
Result: <0.001

More entries:
Problem: # lookup: ø (fluorescence quantum yield) of CCN(CC)c1ccc2nc3c4ccccc4c(=S)cc-3oc2c1 [SNile Red]
Result: <0.001

Values from patent US11913884B2
